System: clinical HIV-1 isolate, JEW
PROTOCOL_DETAILS: Anti-HIV activity (p24 ELISA) in acutely infected PHA-stimulated PBMC, clinical isolate JEW
Type: cell-based
RUN_CONDITIONS: Human immunodeficiency virus 1, PBMC, 168 h, 5-FU concentration 0.5 µM; PHA-stimulated PBMC, isolate JEW, p24 at day 7; mean of three experiments; read-out: EC50 (nM) of ddI

| COMPOUND | EC50 (nM) |
| --- | --- |
| OC[C@@H]1CC[C@H](n2cnc3c(O)ncnc32)O1 [ddI, 2',3'-dideoxyinosine] | 138 |

Data origin, for the record: patent EP0774258A1
